reportedMetric: melting point

Read the entry "FC(F)(F)Oc1ccc(CCNc2cc(-c3ccccn3)nc3ncnn23)cc1" and write its reported melting point. 163 to 165 °C

Identify the reported melting point for the following entry. "COc1ccc(CCNc2cc(-c3ccccc3F)nc3ncnn23)cc1" 153 to 155 °C

Let me know recorded melting point for "COc1ccc(CNc2cc(-c3ccccc3)nc3ncnn23)cc1" , thanks. 162 to 163 °C

# return recorded melting point for entry "CCc1ccc(CCNc2cc(-c3ccccn3)nc3ncnn23)cc1" 154 to 155 °C

Tell me measured melting point for "COc1ccc(CCNc2cc(-c3ccccn3)nc3nc(C)nn23)cc1" please. 139 to 141 °C

Answer with reported melting point of "COc1ccc(CCNc2cc(-c3cccnc3)nc3ncnn23)cc1" 152 to 153 °C

Give the value of melting point reported for the following: "c1ccc(CCNc2cc(-c3ccccn3)nc3ncnn23)nc1" 156 to 157 °C

Respond only with melting point recorded for "CCc1ccc(CCNc2cc(-c3ccccc3)nc3ncnn23)cc1" 152 to 154 °C

Identify melting point associated with the compound "c1ccc(CCCNc2cc(-c3ccccc3)nc3ncnn23)cc1" 143 to 145 °C

Output melting point of "c1ccc(-c2cc(NCCc3ccncc3)n3ncnc3n2)nc1" 201 to 202 °C

Give the measured melting point for "c1ccc(-c2cc(NC3CC3)n3ncnc3n2)cc1" 193 to 195 °C

* * *

assayRemarks: Fraction unbound in mouse plasma
Type: in vitro ADME
experimentalSetup: read-out: Mouse Fu,pl (fraction unbound in plasma)
# fraction unbound listing for each entry below
Just the number, please, no unit attached.

>  <smiles>
FC(F)(F)Oc1ccc(CCNc2cc(-c3ccccc3)nc3ncnn23)cc1

>  <fraction unbound>
0.007

$$$$

Moving on to another compound below.
Read off the recorded fraction unbound for "Cc1ccc(CCNc2cc(-c3ccccc3)nc3ncnn23)cc1" 0.015

* * *

Tested on: HepG2 cells
assayRemarks: Cytotoxicity against HepG2 cell line (CellTiter-Glo)
Type: cell-based
experimentalSetup: Homo sapiens, 48 h; HepG2, 2 days incubation; read-out: IC50 (concentration required to reduce the viability of HepG2 cells by 50%)
reportedMetric: pIC50
Here pIC50 is given on a logarithmic scale as minus log10 of the concentration in mol/L.

>  <molecule>
CCc1ccc(CCNc2cc(-c3ccccn3)nc3ncnn23)cc1 [Compound 56]

>  <endpointValue>
4.36

$$$$
>  <molecule>
COc1ccc(CCNc2cc(-c3ccc(F)cc3)nc3ncnn23)cc1 [Compound 13]

>  <endpointValue>
4.05

$$$$
>  <molecule>
COc1ccc(C2CN(c3cc(-c4ccccn4)nc4ncnn34)CCO2)cc1 (stereo not shown) [Compound 64]

>  <endpointValue>
4.30

$$$$
>  <molecule>
c1ccc(CCCNc2cc(-c3ccccc3)nc3ncnn23)cc1 [Compound 40]

>  <endpointValue>
5.06

$$$$
>  <molecule>
CCCCNc1cc(-c2ccccc2)nc2ncnn12 [Compound 32]

>  <endpointValue>
4.01

$$$$
>  <molecule>
Fc1ccc(CCNc2cc(-c3ccccc3)nc3ncnn23)cc1 [Compound 46]

>  <endpointValue>
4.30

$$$$

Given COc1ccc(C2CCN(c3cc(-c4ccccn4)nc4ncnn34)C2)cc1 (stereo not shown) [Compound 62] , respond with its pIC50. 4.64

For the molecule COc1ccc(CCNc2cc(-c3ccc(Cl)cc3)nc3ncnn23)cc1 [Compound 11] , give its reported pIC50. 4.19

Supply pIC50 value. Item: COc1ccc(CCNc2cc(C3CCCCC3)nc3ncnn23)cc1 [Compound 25] 4.33
